method: Cytotoxicity against human MT4 cells assessed as growth inhibition after 4 days by MTT assay
Type: cell-based
reported-property: CC50 at 96 h (µM)
Give bare numbers, in µM.

# count of solved cases: 5
Sample CC(C)N1CCCN2C(=O)c3c(O)c(=O)c(C(=O)NCc4ccc(F)cc4)cn3CC21 (racemic) ; CC50 at 96 h observed: 7.2

Sample O=C(NCc1ccc(F)cc1)c1cn2ccn(CCOc3ccccc3)c(=O)c2c(O)c1=O ; CC50 at 96 h observed: 2.4

Sample CC(C)OCCn1ccn2cc(C(=O)NCc3ccc(F)cc3)c(=O)c(O)c2c1=O ; CC50 at 96 h observed: 49

Sample CC(C)CN1CCCCN2C(=O)c3c(O)c(=O)c(C(=O)NCc4ccc(F)cc4)cn3CC12 (racemic) ; CC50 at 96 h observed: 13

Sample COCCN1CCCN2C(=O)c3c(O)c(=O)c(C(=O)NCc4ccc(F)cc4)cn3CC12 (racemic) ; CC50 at 96 h observed: 9.8

Please go through the list and note CC50 at 96 h for each compound.
1. CN1CCCN2C(=O)c3c(O)c(=O)c(C(=O)NCc4ccc(F)cc4)cn3CC12 (racemic)
2. COCCN1CCn2cc(C(=O)NCc3ccc(F)cc3)c(=O)c(O)c2C1=O
3. O=C(NCc1ccc(F)cc1)c1cn2c(c(O)c1=O)C(=O)N(CCN1CCOCC1)CC2
4. O=C(NCc1ccc(F)cc1)c1cn2c(c(O)c1=O)C(=O)N1CCCOC1C2 (racemic)
5. O=C(NCc1ccc(F)cc1)c1cn2ccn(CCN3CCOCC3)c(=O)c2c(O)c1=O

Solution:
[20, 52, 160, 18, 36]

###

method: Cytotoxicity against human MT4 cells assessed as growth inhibition after 4 days by MTT assay
Assay type: cell-based
reported-property: CC50 at 96 h (µM)
Numbers only, in µM.

Please go through the list and note CC50 at 96 h for each compound.
1. O=C(NCc1ccc(F)cc1)c1cn2c(c(O)c1=O)C(=O)N1CCCCOC1C2 (racemic)
2. O=C(NCc1ccc(F)cc1)c1cn2c(c(O)c1=O)C(=O)N1CCCN(Cc3nccs3)C1C2 (racemic)
3. O=C(NCc1ccc(F)cc1)c1cn2c(c(O)c1=O)C(=O)N(CCOc1ccccc1)CC2
4. CC(C)N1CCN2C(=O)c3c(O)c(=O)c(C(=O)NCc4ccc(F)cc4)cn3CC21 (racemic)

Solution:
26
2.8
10
8

###

Record form. Attribute: Ratio IC50. Fill in for each entry.
Tested on: Human immunodeficiency virus 1
method: Selectivity ratio of IC50 for wild type HIV1 3B infected in human MT4 cells in presence of human serum albumin to IC50 for wild type HIV1 3B infected in human MT4 cells
Assay type: functional
Give bare numbers.

Sample CN(C)C(=O)Cn1ccn2cc(C(=O)NCc3ccc(F)cc3)c(=O)c(O)c2c1=O ; Ratio IC50 observed: 4.1

Sample O=C(NCc1ccc(F)cc1)c1cn2c(c(O)c1=O)C(=O)N1CCCCOC1C2 (racemic) ; Ratio IC50 observed: 7.6

Sample COCCN1CCn2cc(C(=O)NCc3ccc(F)cc3)c(=O)c(O)c2C1=O ; Ratio IC50 observed: 3.1

Sample O=C(NCc1ccc(F)cc1)c1cn2ccn(CCOc3ccccc3)c(=O)c2c(O)c1=O ; Ratio IC50 observed: 11

Sample O=C(NCc1ccc(F)cc1)c1cn2c(c(O)c1=O)C(=O)N(CCN1CCOCC1)CC2 ; Ratio IC50 observed: 1.6

Please go through the list and note Ratio IC50 for each compound.
1. CN(C)C(=O)CN1CCn2cc(C(=O)NCc3ccc(F)cc3)c(=O)c(O)c2C1=O
2. CC(C)OCCN1CCn2cc(C(=O)NCc3ccc(F)cc3)c(=O)c(O)c2C1=O
3. O=C(NCc1ccc(F)cc1)c1cn2c(c(O)c1=O)C(=O)N1CCCN(Cc3nccs3)C1C2 (racemic)

Solution:
1. 2.4
2. 3.1
3. 3.9

###

method: Cytotoxicity against human MT4 cells assessed as growth inhibition after 4 days by MTT assay
Format: cell-based
reported-property: CC50 at 96 h

# count of solved cases: 5
Sample CN1CCCCN2C(=O)c3c(O)c(=O)c(C(=O)NCc4ccc(F)cc4)cn3CC12 (racemic) ; CC50 at 96 h observed: > 200 µM

Sample O=C(NCc1ccc(F)cc1)c1cn2c(c(O)c1=O)C(=O)N(C1CCCCC1)CC2 ; CC50 at 96 h observed: > 240 µM

Sample O=C(NCc1ccc(F)cc1)c1cn2ccn(C3CCCCC3)c(=O)c2c(O)c1=O ; CC50 at 96 h observed: > 200 µM

Sample CS(=O)(=O)N1CCCN2C(=O)c3c(O)c(=O)c(C(=O)NCc4ccc(F)cc4)cn3CC21 (racemic) ; CC50 at 96 h observed: > 220 µM

Sample CN(C)C(=O)CN1CCn2cc(C(=O)NCc3ccc(F)cc3)c(=O)c(O)c2C1=O ; CC50 at 96 h observed: > 200 µM

***
Sample COCCn1ccn2cc(C(=O)NCc3ccc(F)cc3)c(=O)c(O)c2c1=O ; CC50 at 96 h observed: > 200 µM
